test: physchem; conditions: buffer, pH 7.5
Description: Lipophilic dissociation constant is determined as a measure of partitioning of neutral molecules at pH 7.5
In this section, each of the compounds is paired with its reported logD.

| CPD SMILES | logD |
| --- | --- |
| Cc1cccc2nc3c(c(N)c12)CCCO3 | 1.63 |
| Nc1c2c(nc3ccccc13)OCCC2 | 1.37 |

----------
molecular target: Acetylcholinesterase (Homo sapiens)
Sequence (P22303 whole entry): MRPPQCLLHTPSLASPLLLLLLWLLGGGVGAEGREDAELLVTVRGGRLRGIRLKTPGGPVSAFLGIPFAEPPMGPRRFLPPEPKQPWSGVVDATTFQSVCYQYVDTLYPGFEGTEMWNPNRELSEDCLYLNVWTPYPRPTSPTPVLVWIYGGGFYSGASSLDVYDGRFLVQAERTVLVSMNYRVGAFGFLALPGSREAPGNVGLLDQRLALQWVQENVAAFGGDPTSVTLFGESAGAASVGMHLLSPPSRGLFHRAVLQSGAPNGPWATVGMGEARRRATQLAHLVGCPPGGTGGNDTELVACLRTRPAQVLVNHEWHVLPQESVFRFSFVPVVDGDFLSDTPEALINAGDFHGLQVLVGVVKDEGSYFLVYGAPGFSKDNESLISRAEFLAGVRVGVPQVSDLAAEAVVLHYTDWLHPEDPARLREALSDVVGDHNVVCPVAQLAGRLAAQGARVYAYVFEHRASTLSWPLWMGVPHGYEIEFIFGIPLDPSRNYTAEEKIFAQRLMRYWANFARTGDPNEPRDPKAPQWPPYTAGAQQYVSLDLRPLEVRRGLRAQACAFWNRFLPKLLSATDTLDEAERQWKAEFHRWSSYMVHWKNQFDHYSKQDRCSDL
Sorting guide: entries reporting IC50 beneath 500 nM go in the Condition met pile, the rest go in the Condition not met pile.

| CPD SMILES | ASSIGNED CLASS |
| --- | --- |
| Nc1c2c(nc3cccc(Cl)c13)OCCC2 | Condition met |
| Nc1c2c(nc3ccc(Cl)cc13)CCCC2 | Condition not met |
| Nc1c2c(nc3c1CCCO3)CCC2 | Condition not met |
| Nc1c2c(nc3cccc(Cl)c13)CCCC2 | Condition met |
| Nc1c2c(nc3cnccc13)CCCC2 | Condition not met |
| Cc1cccc2nc3c(c(N)c12)CCCC3 | Condition met |
| Nc1c2c(nc3cnccc13)OCCC2 | Condition met |
| COc1cccc2nc3c(c(N)c12)CCCO3 | Condition not met |
| Nc1c2c(nc3ccc(Cl)cc13)OCCC2 | Condition not met |
| Nc1c2c(nc3c1CCCC3)CCCC2 | Condition met |
| Nc1c2c(nc3cccc(F)c13)OCCC2 | Condition met |
| Nc1c2c(nc3c1CCCO3)CCCC2 | Condition met |
| Nc1c2c(nc3ncccc13)OCCC2 | Condition not met |
| Nc1c2c(nc3ncccc13)CCCC2 | Condition met |
| COc1cccc2nc3c(c(N)c12)CCCC3 | Condition not met |
| Nc1c2c(nc3cccc(F)c13)CCCC2 | Condition met |
| Cc1cccc2nc3c(c(N)c12)CCCO3 | Condition met |
| Nc1c2c(nc3ccccc13)OCCC2 | Condition met |

----------
assay: physchem
Description: Compound was evaluated for its acid dissociation constant
In this section, each of the molecules is paired with its reported pKa.
QUANTITY: pKa

| MOLECULE | QUANTITY | MEASURED VALUE |
| --- | --- | --- |
| Nc1c2c(nc3ccccc13)OCCC2 | pKa | 7.8 |
| Nc1c2c(nc3cccc(F)c13)CCCC2 | pKa | 9.1 |
| Nc1c2c(nc3ncccc13)CCCC2 | pKa | 8.8 |
| Nc1c2c(nc3c1CCCO3)CCCC2 | pKa | 7.8 |
| Nc1c2c(nc3cnccc13)CCCC2 | pKa | 7.3 |
| Nc1c2c(nc3c1CCCO3)CCC2 | pKa | 7.8 |
| Nc1c2c(nc3c1CCC3)CCCC2 [IPIDACRINE] | pKa | 10.2 |
| COc1cccc2nc3c(c(N)c12)CCCO3 | pKa | 8.11 |
| Nc1c2c(nc3cccc(Cl)c13)CCCC2 | pKa | 9.3 |
| Cc1cccc2nc3c(c(N)c12)CCCC3 | pKa | 9.98 |
| Nc1c2c(nc3cccc(Cl)c13)OCCC2 | pKa | 6.6 |
| Nc1c2c(nc3cccc(F)c13)OCCC2 | pKa | 6.9 |
| Nc1c2c(nc3cnccc13)OCCC2 | pKa | 5.6 |
| COc1cccc2nc3c(c(N)c12)CCCC3 | pKa | 10.4 |
| Cc1cccc2nc3c(c(N)c12)CCCO3 | pKa | 8.06 |
| Nc1c2c(nc3c1CCCC3)CCCC2 [OCTAAMINOACRIDINE] | pKa | 11 |
| Nc1c2c(nc3ncccc13)OCCC2 | pKa | 6.4 |

The measurements presented in this section are drawn from ChEMBL document CHEMBL1126001.
